Experiment: chemical genetic growth profiling, strain panel (AID 1159580);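 also: tested at 20 µM; growth read once vehicle control cultures reached saturation at 30 °C; 1 = growth at the plate median or of vehicle wells; lower values mean less growth of the strain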
Conditions: S. cerevisiae deletion strains, growth OD, locus YCL016C, strain dcc1, active compounds read low
About 2,000 (36%) of roughly 5,500 compounds were called active. Roughly 18% stayed inconclusive and do not appear here. The list shows a part of the results.
Listed here are molecules together with their documented normalized growth.
Number only, no unit.

[ask] Complete the entry with normalized growth for "CN1C[C@H](C(=O)N[C@]2(C)O[C@@]3(O)[C@@H]4CCCN4C(=O)[C@H](Cc4ccccc4)N3C2=O)C[C@@H]2c3cccc4[nH]cc(c34)C[C@H]21"
[reply] 0.998

[ask] Give the reported value of normalized growth for this record: "O=c1cc(-c2ccc(O)cc2)oc2cc(O[C@@H]3O[C@H](CO)[C@@H](O)[C@H](O)[C@H]3O)cc(O)c12"
[reply] 0.983

[ask] # return recorded normalized growth for entry "O=c1c(O)c(-c2ccc(O)c(O)c2)oc2c(O)c(O)cc(O)c12"
[reply] 0.991

====

Test: chemical genetic growth profiling, strain panel (AID 1159580)
Settings: S. cerevisiae deletion strains, growth OD, locus YPR119W, strain clb2, active compounds read low
Out of some 5,500 compounds screened, about 2,000 (36%) were called active. Not shown: some 18% with an inconclusive outcome. The list shows a part of the results.
observable: normalized growth
// return a plain number; no unit text

[ask] State its normalized growth for this compound: "CCC/C=C1\OC(=O)C2=C1CCC=C2"
[reply] 0.983

[ask] Give the measured normalized growth for "CN1C[C@H](C(=O)N[C@]2(C)O[C@@]3(O)[C@@H]4CCCN4C(=O)[C@H](Cc4ccccc4)N3C2=O)C[C@@H]2c3cccc4[nH]cc(c34)C[C@H]21"
[reply] 0.967

[ask] Give reported normalized growth value for CCCCC1C(=O)N(c2ccccc2)N(c2ccc(O)cc2)C1=O (stereo not given)
[reply] 0.982

[ask] Respond only with normalized growth recorded for CC(C)c1c(O)ccc2c1CCC1[C@@](C)(C=O)CCC[C@]21C (stereo not given in full)
[reply] 0.305

[ask] Provide one value: measured normalized growth of COC(=O)[C@@]1(C)CCC[C@]2(C)c3ccc(O)c(C(C)C)c3CCC12 (stereo not given in full)
[reply] 0.799

====

Assay: chemical genetic growth profiling, strain panel (AID 1159580);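 also: tested at 20 µM; growth read once vehicle control cultures reached saturation at 30 °C; 1 = growth at the plate median or of vehicle wells; lower values mean less growth of the strain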
Details: S. cerevisiae deletion strains, growth OD, locus YNL197C, strain WHI3, active compounds read low
In all, about 5,500 compounds went through this assay and about 2,000 (36%) were called active. Roughly 18% stayed inconclusive and do not appear here. This is one part of the list.
observable: normalized growth
Please reply with the value in numeric form only.

{"molecule": "Cc1cn([C@H]2C=C[C@@H](CO)O2)c(=O)[nH]c1=O", "normalized growth": 0.995}
{"molecule": "CNCC(O)c1ccc(O)cc1 (configuration not stated)", "normalized growth": 1.01}
{"molecule": "NC(=O)OCC(COC(N)=O)c1ccccc1", "normalized growth": 1}
{"molecule": "CC(=O)OC(C)C[N+](C)(C)C (configuration not stated)", "normalized growth": 1}
{"molecule": "CN(C)c1nc(N)c(C(=O)N=C(N)N)nc1Cl", "normalized growth": 1}
{"molecule": "CCCCCCCCCCCCCCCC(=O)OC(CC(=O)O)C[N+](C)(C)C (configuration not stated)", "normalized growth": 0.0681}
{"molecule": "CC[C@H](NC(=O)c1c(C)c(-c2ccccc2)nc2ccccc12)c1ccccc1", "normalized growth": 1.04}
{"molecule": "CN1C(C)(C)CCCC1(C)C", "normalized growth": 1}
{"molecule": "CC(C)[C@@]1(NC(=O)[C@@H]2C[C@@H]3c4cccc5[nH]cc(c45)C[C@H]3N(C)C2)O[C@@]2(O)[C@@H]3CCCN3C(=O)[C@H](Cc3ccccc3)N2C1=O", "normalized growth": 1.02}
{"molecule": "CCCCCCCCCC(=O)NC(CN1CCOCC1)[C@H](O)c1ccccc1 (some centres not stated)", "normalized growth": 0.944}

[ask] Supply recorded normalized growth for "CN(C)c1ccc(/C=C2\C(=O)Nc3ccccc32)cc1" here.
[reply] 0.942

[ask] Return reported normalized growth. Input molecule: "COC(=O)[C@@H]1[C@H]2C[C@H]3c4[nH]c5ccccc5c4CCN3C[C@@H]2CC[C@@H]1O"
[reply] 0.984

[ask] Look up normalized growth of Nc1nc(Nc2ccccc2)nc2c1ncn2[C@@H]1O[C@H](CO)[C@H](O)C1O (some centres not stated) and report it.
[reply] 1.01

[ask] For the molecule "NC(N)=NC(=O)c1nc(Cl)c(N)nc1N" , give its reported normalized growth.
[reply] 0.992

[ask] Answer with reported normalized growth of "CC1=NN=C(c2ccc(N)cc2)c2cc3c(cc2C1)OCO3"
[reply] 0.964

[ask] Answer with the recorded normalized growth for the molecule listed here: "CCN(c1nc(N)c(C(=O)N=C(N)N)nc1Cl)C(C)C"
[reply] 1.02

[ask] Supply reported normalized growth belonging to this molecule: CSc1nc(N)c2ncn([C@@H]3O[C@H](COP(=O)(O)OP(=O)(O)OP(=O)(O)O)[C@H](O)C3O)c2n1 (some centres not stated)
[reply] 0.979

[ask] Specify measured normalized growth for "O=S(=O)(c1cccc2c(Cl)cccc12)N1CCCNCC1" .
[reply] 1.03

[ask] Please supply the value of reported normalized growth for the item CCN(Cc1ccncc1)C(=O)C(CO)c1ccccc1 (configuration not stated)
[reply] 1.02

[ask] Dear colleague, please send me the reported normalized growth for "COc1cc2c(cc1O)CC[C@@H]1[C@@H]2CC[C@]2(C)[C@@H](O)CC[C@@H]12" when you can.
[reply] 1.03

[ask] Give normalized growth for the following molecule: "C[C@]12CC[C@@H]3c4ccc(O)cc4CC[C@H]3[C@@H]1CC[C@@H]2O"
[reply] 1.03

[ask] Check the records and state normalized growth for COc1ccc2c(c1)CCC1C2CC[C@@]2(C)C1CC[C@@H]2NCCCCCCN1C(=O)C=CC1=O (some centres not stated)
[reply] 1.07

====

Assay: chemical genetic growth profiling, strain panel (AID 1159580);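 also: tested at 20 µM; growth read once vehicle control cultures reached saturation at 30 °C; 1 = growth at the plate median or of vehicle wells; lower values mean less growth of the strain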
Conditions: S. cerevisiae deletion strains, growth OD, locus YLL041C, strain sdh2
In all, about 5,500 compounds went through this assay and about 2,000 (36%) were called active. Roughly 18% stayed inconclusive and do not appear here. Rule as the data show it: active = normalized growth mostly below about 0.91 (no sharp cut-off); inconclusive = no clear call, values can overlap the other calls; inactive = mostly above about 0.92. The list shows a part of the results.
// classify into 1 (active), 0 (inactive)

Past entries and their recorded results:
{"compound": "CCCCCCC(C)OC(=O)COc1ccc(Cl)cc1Cl (configuration not stated)", "qualitative_label": 0}
{"compound": "COC1=CC(=O)C(O)=C/C1=C\\C=C\\c1ccccc1", "qualitative_label": 1}
{"compound": "NC(=O)NCCCC(N)C(=O)O (configuration not stated)", "qualitative_label": 0}
{"compound": "COC(=O)c1c(C)cc(O)cc1O", "qualitative_label": 0}
{"compound": "CCCCOc1cc(C(=O)NCCN(CC)CC)c2ccccc2n1", "qualitative_label": 0}

[ask] Field: outcome | Entry: Oc1cc2c(cc1O)C1c3ccc(O)c(O)c3OCC1(O)C2 (configuration not stated)
[reply] 0

[ask] For this compound, state the assay outcome: CC(C)(C)NCC(O)c1cc(Cl)c(N)c(Cl)c1 (configuration not stated)
[reply] 0

[ask] Lab log entry: CC(=O)[C@@]1(O)CCC2C3C[C@H](C)C4=CC(=O)C=CC4(C)[C@@]3(F)[C@@H](O)C[C@@]21C (some centres not stated) — outcome as called in the assay?
[reply] 0

[ask] Per the records of this test, what outcome belongs to "O=C(O)C1=C[C@@H](O)[C@@H](O)[C@H](O)C1" ?
[reply] 0

[ask] I would be grateful if you could indicate the recorded call for CC(=O)Oc1ccc2c(c1OC(C)=O)OCC1(O)Cc3c(cc(OC(C)=O)c(OC(C)=O)c3OC(C)=O)C21 (configuration not stated) .
[reply] 0

[ask] Hey, what did the test say about Oc1ccc2c(c1)OCC1(O)Cc3cc(O)c(O)cc3C21 (configuration not stated) ?
[reply] 0

[ask] Identify the outcome logged in this assay for the compound shown: "Cc1cc(OC(=O)c2c(C)cc(O)cc2O)cc(O)c1C(=O)O"
[reply] 0

====

Assay: chemical genetic growth profiling, strain panel (AID 1159580);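 also: tested at 20 µM; growth read once vehicle control cultures reached saturation at 30 °C; 1 = growth at the plate median or of vehicle wells; lower values mean less growth of the strain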
Conditions: S. cerevisiae deletion strains, growth OD, locus YLR039C, strain RIC1
Among all 5,500 compounds or so, about 2,000 (36%) were called active. Inconclusive results (about 18%) are left out. Rule as the data show it: active = normalized growth mostly below about 0.91 (no sharp cut-off); inconclusive = no clear call, values can overlap the other calls; inactive = mostly above about 0.92. This is one part of the list.
Just give me one of these, please: active, inactive

Please review the following examples before continuing.
{"compound": "N#Cc1ccc(-c2csc(-c3ccc(Oc4ccc(C(F)(F)F)cn4)cc3)n2)cc1", "qualitative_label": "inactive"}
{"compound": "COc1ccc(-c2oc3cc(O[C@H]4O[C@H](CO)[C@@H](O)[C@H](O)[C@H]4O)c(OC)c(O)c3c(=O)c2OC)cc1O", "qualitative_label": "inactive"}
{"compound": "CC1O[C@@H](Oc2c(-c3ccc(O)c(O)c3)oc3cc(O)cc(O)c3c2=O)[C@H](O)[C@H](O)[C@H]1O (stereo not given in full)", "qualitative_label": "inactive"}
{"compound": "COC(=O)C1OC(=O)C2OC23C1(C)CCC1C2(C)C(OC(C)=O)CC(OC(C)=O)C(C)(C)C2CC(=O)C13C (stereo not given)", "qualitative_label": "inactive"}
{"compound": "Cc1ccc(-c2csc(-c3ccc(Oc4ccc(C(F)(F)F)cn4)cc3)n2)c(C)c1", "qualitative_label": "inactive"}

[ask] // param item: "CSc1cccc(NC(=S)N=CN(C)C)c1" ; yields the recorded call
[reply] active

[ask] What did this assay record as the result for "CN1C(C)(C)CCCC1(C)C" ?
[reply] inactive

[ask] I would be grateful if you could indicate the recorded call for NC(=O)NCC(N)C(=O)O (stereo not given) .
[reply] inactive
